Each recorded value in this set is attributed to PubChem BioAssay.

Overview of reported z-score across a group of molecules:
# ASSAY_NOTES: modulators of HCV replicon luciferase signal, primary screen, HCV replication inhibitor project, Huh7 cells, luciferase reporter (AID 1109);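 further: huh7 hepatoma cells harbouring a luciferase neomycin HCV replicon reporter; luciferase luminescence as measure of HCV replicon replication; test concentration not given here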
# RUN_PARAMETERS: 48 h, higher = more signal
VALUE_TYPE: z-score

{"MOLECULE": "CCCCC=C[C@@H](NC(=O)C(C)(C)C)c1ccccc1", "VALUE_OBSERVED": -3.07}
{"MOLECULE": "CC1C2C(CCCO)=CC(C3C(=O)N(C(N)=O)C(=O)C23)N1Cc1cccc(OC(F)(F)F)c1 (stereo not drawn)", "VALUE_OBSERVED": -1.07}
{"MOLECULE": "C=CCOC(=O)[C@@H]1[C@H]2C(=O)O[C@H](c3ccccc3)[C@H](c3ccccc3)N2[C@H](c2ccc(OCCOC(=O)[C@@H]3C[C@@H]4C(=O)N[C@@H](CC(C)C)C(=O)N4[C@@H]3c3ccc(O)cc3)cc2)[C@@]12C(=O)Nc1ccc(I)cc12", "VALUE_OBSERVED": -0.432}
{"MOLECULE": "C=CCNC(=O)[C@H]1[C@@H]2C(=O)O[C@@H](c3ccccc3)[C@@H](c3ccccc3)N2[C@@H](c2ccc(O)cc2)[C@]12C(=O)Nc1ccccc12", "VALUE_OBSERVED": -0.462}
{"MOLECULE": "C=C(CCCC)C(=O)CC[C@H](OC(=O)c1ccccc1-c1ccccc1C(=O)O)c1cccc(OCCO)c1", "VALUE_OBSERVED": -1.92}
{"MOLECULE": "COc1c(C)cc(-c2cc3c(c(CCc4ccccc4)n2)[Si](C(C)C)(C(C)C)O[C@H]3c2ccccc2)cc1C", "VALUE_OBSERVED": -3.84}
{"MOLECULE": "CCCCCN1CC=CC23O[C@@H]4/C=C\\CCCOC(=O)C4[C@H]2C(=O)N(CCO)[C@@H]3C1=O (stereo partly drawn)", "VALUE_OBSERVED": 0.548}
{"MOLECULE": "CC(C)N1CC=CC23O[C@@H]4/C=C\\CCCOC(=O)C4[C@H]2C(=O)N(C(C)CO)[C@@H]3C1=O (stereo partly drawn)", "VALUE_OBSERVED": 0.314}
